tested_on: hSTING REF allele (Homo sapiens, UniProt Q86WV6)
Construct: DNA encoding amino acids 140-379 (amino acid numbering corresponding to Swiss Prot Q86WV6); 6xHIS-SUMO (with TEV site) (N, cleaved yes); made in house; host or cells: Rosetta2 (DE3) E. coli
Sequence (Q86WV6 140-379): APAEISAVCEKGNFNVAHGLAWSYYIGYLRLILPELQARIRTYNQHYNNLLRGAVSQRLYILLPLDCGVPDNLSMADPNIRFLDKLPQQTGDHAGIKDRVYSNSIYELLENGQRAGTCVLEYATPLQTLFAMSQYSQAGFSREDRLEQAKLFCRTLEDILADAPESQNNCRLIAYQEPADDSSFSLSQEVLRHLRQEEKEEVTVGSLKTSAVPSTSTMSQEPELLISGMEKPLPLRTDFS
experiment: Differential scanning fluorometry (DSF) Tm shift with purified STING AA140-379
Type: binding
experimental_parameters: ligand 1 mM, 1 mg/ml STING AA140-379
recorded_metric: hSTING Tm Shift REF (°C)

Some molecules with recorded hSTING Tm Shift REF:
- molecule: "Nc1nc(N)c2ncn([C@@H]3O[C@@H]4CO[P@@](=O)(S)O[C@H]5[C@@H](O)[C@H](n6cnc7c(N)nc(N)nc76)O[C@@H]5CO[P@](=O)(S)O[C@H]4[C@H]3O)c2n1 [Compound 23a]"
  recorded_metric: "hSTING Tm Shift REF"
  recorded_number: 3.1
- molecule: "CC(C)(C)[Si](C)(C)O[C@H]1[C@H]2O[P@@](=O)(S)OC[C@H]3O[C@@H](n4cnc5c(N)ncnc54)[C@H](F)[C@@H]3O[P@](=O)(S)OC[C@H]1O[C@H]2n1cnc2c(N)ncnc21 [Compound 6a]"
  recorded_metric: "hSTING Tm Shift REF"
  recorded_number: 4.8

(P) Nc1nc(N)c2ncn([C@@H]3O[C@@H]4CO[P@@](=O)(S)O[C@H]5[C@@H](O)[C@H](n6cnc7c(N)nc(N)nc76)O[C@@H]5CO[P@@](=O)(S)O[C@H]4[C@H]3O)c2n1 [Compound 23]
(Q) Nc1ncnc2c1ncn2[C@H]1O[C@H]2CO[P@](=O)(S)O[C@@H]3[C@H](O)[C@@H](n4cnc5c(N)ncnc54)O[C@H]3CO[P@](=O)(S)O[C@@H]2[C@@H]1O [Compound 48]
(R) Nc1ccn([C@@H]2O[C@@H]3CO[P@](=O)(S)O[C@H]4[C@@H](F)[C@H](n5cnc6c(N)ncnc65)O[C@@H]4CO[P@@](=O)(S)O[C@H]3[C@H]2F)c(=O)n1 [Compound 37a]
**Query** Order the entries by their reported hSTING Tm Shift REF, beginning at the minimum. // ordering of labels required in reply
**Result** Q, R, P

---

tested_on: hSTING WT (Homo sapiens, UniProt Q86WV6, H232R)
Construct: DNA encoding amino acids 140-379 (amino acid numbering corresponding to Swiss Prot Q86WV6); 6xHIS-SUMO (with TEV site) (N, cleaved yes); made in house; host or cells: Rosetta2 (DE3) E. coli
Sequence (Q86WV6 140-379 H232R): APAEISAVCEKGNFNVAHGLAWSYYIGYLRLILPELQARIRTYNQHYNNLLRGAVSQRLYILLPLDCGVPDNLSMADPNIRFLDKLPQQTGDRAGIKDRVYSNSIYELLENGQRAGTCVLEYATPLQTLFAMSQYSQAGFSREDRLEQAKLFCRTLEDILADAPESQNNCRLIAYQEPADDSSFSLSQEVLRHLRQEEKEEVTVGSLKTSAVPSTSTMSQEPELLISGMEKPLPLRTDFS
experiment: Differential scanning fluorometry (DSF) Tm shift with purified STING AA140-379
Assay type: binding
experimental_parameters: ligand 1 mM, 1 mg/ml STING AA140-379
recorded_metric: hSTING Tm Shift WT (°C)

Some compounds with recorded hSTING Tm Shift WT:
- compound: "Nc1nc(N)c2ncn([C@@H]3O[C@@H]4CO[P@@](=O)(S)O[C@H]5[C@@H](O)[C@H](n6cnc7c(N)nc(N)nc76)O[C@@H]5CO[P@@](=O)(S)O[C@H]4[C@H]3O)c2n1"
  hSTING Tm Shift WT / °C: 12.2
- compound: "CC(C)C(=O)Nc1nc2c(ncn2[C@@H]2O[C@@H]3CO[P@@](=O)(S)O[C@H]4[C@@H](F)[C@H](n5cnc6c(=O)[nH]c(NC(=O)C(C)C)nc65)O[C@@H]4CO[P@@](=O)(S)O[C@H]3[C@H]2F)c(=O)[nH]1"
  hSTING Tm Shift WT / °C: 10.7

(A) Nc1nc(N)c2ncn([C@@H]3O[C@@H]4CO[P@@](=O)(S)O[C@H]5[C@@H](O)[C@H](n6cnc7c(N)nc(N)nc76)O[C@@H]5CO[P@](=O)(S)O[C@H]4[C@H]3O)c2n1 [Compound 23a]
(B) Nc1ccn([C@@H]2O[C@@H]3CO[P@](=O)(S)O[C@H]4[C@@H](F)[C@H](n5cnc6c(N)ncnc65)O[C@@H]4CO[P@@](=O)(S)O[C@H]3[C@H]2F)c(=O)n1 [Compound 37a]
(C) Nc1ncnc2c1ncn2[C@H]1O[C@H]2CO[P@](=O)(S)O[C@@H]3[C@H](O)[C@@H](n4cnc5c(N)ncnc54)O[C@H]3CO[P@](=O)(S)O[C@@H]2[C@@H]1O
(D) Nc1ncnc2c1ncn2[C@H]1O[C@H]2CO[P@@](=O)(S)O[C@@H]3[C@H](O)[C@@H](n4cnc5c(N)ncnc54)O[C@H]3CO[P@@](=O)(S)O[C@@H]2[C@@H]1O [Compound 48b]
**Query** Sort entries by hSTING Tm Shift WT from minimum to maximum value. Submit the labels in the order that the ranking request calls for.
**Result** C, D, B, A
(C: 2.0 °C, D: 3.0 °C, B: 5.6 °C, A: 10.0 °C)

---

Items are presented alongside their recorded ΔTm at 1000 µM.
tested_on: hSTING HAQ allele (Homo sapiens, UniProt Q86WV6, G230A/H232R/R293Q)
Construct: DNA encoding amino acids 140-379 (amino acid numbering corresponding to Swiss Prot Q86WV6); 6xHIS-SUMO (with TEV site) (N, cleaved yes); made in house; host or cells: Rosetta2 (DE3) E. coli
Sequence (Q86WV6 140-379 G230A/H232R/R293Q): as the sequence (Q86WV6 140-379 H232R) above, with G91A, R154Q counted along it
experiment: Differential scanning fluorometry (DSF) Tm shift with purified STING AA140-379
Type: binding
experimental_parameters: read-out: hSTING Tm Shift HAQ
The figure you give is taken to be in °C; do not add the unit.

- compound: "CC(C)(C)[Si](C)(C)O[C@H]1[C@H]2O[P@@](=O)(S)OC[C@H]3O[C@@H](n4cnc5c(N)nc(N)nc54)[C@H](O)[C@@H]3O[P@](=O)(S)OC[C@H]1O[C@H]2n1cnc2c(N)ncnc21 [Compound 12a]"
  value_unit: "°C"
  recorded_number: 14.5

**Query** Can you look up ΔTm at 1000 µM on hSTING HAQ allele (Homo sapiens, UniProt Q86WV6, G230A/H232R/R293Q) for CC(C)(C)[Si](C)(C)O[C@H]1[C@H]2O[P@](=O)(S)OC[C@H]3O[C@@H](n4cnc5c(N)nc(N)nc54)[C@H](O)[C@@H]3O[P@](=O)(S)OC[C@H]1O[C@H]2n1cnc2c(N)ncnc21 [Compound 12] ?
**Result** 14.3

**Query** Field: ΔTm at 1000 µM (hSTING HAQ allele (Homo sapiens, UniProt Q86WV6, G230A/H232R/R293Q)). Entry: CC(C)(C)[Si](C)(C)O[C@H]1[C@H]2O[P@@](=O)(S)OC[C@H]3O[C@@H](n4cnc5c(N)ncnc54)[C@H](F)[C@@H]3O[P@](=O)(S)OC[C@H]1O[C@H]2n1cnc2c(N)ncnc21 [Compound 6a]
**Result** 20.2

**Query** So what ΔTm at 1000 µM did CC(C)(C)[Si](C)(C)O[C@H]1[C@H]2O[P@](=O)(S)OC[C@H]3O[C@@H](n4cnc5c(N)ncnc54)[C@H](F)[C@@H]3O[P@](=O)(S)OC[C@H]1O[C@H]2n1cnc2c(N)ncnc21 [Compound 6] get with hSTING HAQ allele (Homo sapiens, UniProt Q86WV6, G230A/H232R/R293Q)?
**Result** 18.1

---

tested_on: hSTING REF allele (Homo sapiens, UniProt Q86WV6)
Construct: DNA encoding amino acids 140-379 (amino acid numbering corresponding to Swiss Prot Q86WV6); 6xHIS-SUMO (with TEV site) (N, cleaved yes); made in house; host or cells: Rosetta2 (DE3) E. coli
experiment: Differential scanning fluorometry (DSF) Tm shift with purified STING AA140-379
Assay type: binding
experimental_parameters: ligand 1 mM, 1 mg/ml STING AA140-379
recorded_metric: hSTING Tm Shift REF (°C)

- compound: "Nc1ncnc2c1ncn2[C@H]1O[C@H]2CO[P@@](=O)(S)O[C@@H]3[C@H](O)[C@@H](n4cnc5c(N)ncnc54)O[C@H]3CO[P@@](=O)(S)O[C@@H]2[C@@H]1O [Compound 48b]"
  tested_on: "hSTING REF allele (Homo sapiens, UniProt Q86WV6)"
  value_unit: "°C"
  recorded_number: 6.4
- compound: "CC(C)C(=O)Nc1nc2c(ncn2[C@@H]2O[C@@H]3CO[P@@](=O)(S)O[C@H]4[C@@H](F)[C@H](n5cnc6c(=O)[nH]c(NC(=O)C(C)C)nc65)O[C@@H]4CO[P@@](=O)(S)O[C@H]3[C@H]2F)c(=O)[nH]1 [Compound 32]"
  tested_on: "hSTING REF allele (Homo sapiens, UniProt Q86WV6)"
  value_unit: "°C"
  recorded_number: 10.5
- compound: "Nc1ncnc2c1ncn2[C@H]1O[C@H]2CO[P@@](=O)(S)O[C@@H]3[C@H](O)[C@@H](n4cnc5c(N)ncnc54)O[C@H]3CO[P@](=O)(S)O[C@@H]2[C@@H]1O [Compound 48a]"
  tested_on: "hSTING REF allele (Homo sapiens, UniProt Q86WV6)"
  value_unit: "°C"
  recorded_number: 6.3
- compound: "Nc1ccn([C@@H]2O[C@@H]3CO[P@@](=O)(S)O[C@H]4[C@@H](F)[C@H](n5cnc6c(N)ncnc65)O[C@@H]4CO[P@@](=O)(S)O[C@H]3[C@H]2F)c(=O)n1 [Compound 37]"
  tested_on: "hSTING REF allele (Homo sapiens, UniProt Q86WV6)"
  value_unit: "°C"
  recorded_number: 7.5
